# Target or system: UniProt:P31422
# Sequence (P31422 23-879 limits assumed): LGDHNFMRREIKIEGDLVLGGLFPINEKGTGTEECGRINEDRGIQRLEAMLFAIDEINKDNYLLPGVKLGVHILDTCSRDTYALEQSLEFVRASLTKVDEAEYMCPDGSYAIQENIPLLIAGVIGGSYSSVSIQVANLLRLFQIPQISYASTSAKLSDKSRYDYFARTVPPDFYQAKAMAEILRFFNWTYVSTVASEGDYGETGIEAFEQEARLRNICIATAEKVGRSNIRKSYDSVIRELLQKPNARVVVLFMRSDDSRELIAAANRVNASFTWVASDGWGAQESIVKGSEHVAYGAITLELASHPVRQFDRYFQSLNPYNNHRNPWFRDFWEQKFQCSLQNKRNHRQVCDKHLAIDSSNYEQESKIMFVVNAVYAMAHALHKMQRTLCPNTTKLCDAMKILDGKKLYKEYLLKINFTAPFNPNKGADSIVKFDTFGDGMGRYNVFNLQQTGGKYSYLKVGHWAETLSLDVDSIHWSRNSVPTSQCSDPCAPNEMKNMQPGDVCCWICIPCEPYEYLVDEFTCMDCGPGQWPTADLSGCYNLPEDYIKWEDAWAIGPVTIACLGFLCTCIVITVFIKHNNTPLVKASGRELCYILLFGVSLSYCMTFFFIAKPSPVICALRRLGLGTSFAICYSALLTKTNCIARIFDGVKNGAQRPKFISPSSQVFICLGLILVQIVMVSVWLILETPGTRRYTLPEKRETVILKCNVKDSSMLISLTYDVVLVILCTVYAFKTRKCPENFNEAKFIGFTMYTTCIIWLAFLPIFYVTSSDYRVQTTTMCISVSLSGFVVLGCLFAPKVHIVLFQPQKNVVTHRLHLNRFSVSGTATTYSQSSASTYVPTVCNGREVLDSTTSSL
# Measurement description: Positive allosteric modulator activity at rat mGlu3 receptor transfected in GIRK channel overexpressing cells assessed as potentiation of glutamate-induced response by thallium mobilization assay relative to glutamate
# Parameters: concentration or dose not given beside the values
# Cond: filed as positive allosteric modulator
Value type: Activity (%)

Cc1c(OC[C@@H](C)COc2ccc(Cl)c(C(=O)O)c2)ccc(C(=O)CC(C)(C)C)c1O | 73
COc1cc(OC[C@H](C)COc2ccc(C(=O)CC(C)(C)C)c(O)c2C)ccc1C(=O)O | 88
Cc1ccc(OCCCCOc2ccc(C(=O)CC(C)(C)C)c(O)c2C)cc1C(=O)O | 88
Cc1c(OCC(C)COc2ccc(C(=O)O)cc2Cl)ccc(C(=O)CC(C)(C)C)c1O (single isomer, unassigned) | 98
COc1ccc(C(=O)O)cc1OC[C@H](C)COc1ccc(C(=O)CC(C)(C)C)c(O)c1C | 111
COc1cc(OCCCCOc2ccc(C(=O)CC(C)(C)C)c(O)c2C)cc(C(=O)O)c1 | 102
Cc1c(OCC(C)COc2ccc(C(=O)O)cc2F)ccc(C(=O)CC(C)(C)C)c1O (single isomer, unassigned) | 87
Cc1cc(OC[C@H](C)COc2ccc(C(=O)CC(C)(C)C)c(O)c2C)ccc1C(=O)O | 80
COc1ccc(C(=O)O)cc1OC[C@H](C)Oc1ccc(C(=O)CC(C)(C)C)c(O)c1C | 71
Cc1c(OC[C@@H](C)COc2ccc(C(=O)O)c(Cl)c2)ccc(C(=O)CC(C)(C)C)c1O | 93
